Exercise: for every item that follows, state its recorded Activity.
test system: Mus musculus; experiment: Antinociceptive activity in ip dosed Swiss albino mouse assessed as latency time after 120 mins by tail flick method; format: functional
Write the value in s as a bare number.

Could you share what Activity was measured for `O=[N+]([O-])c1cccc(-c2nc(-c3ccccc3)c(-c3ccccc3)[nH]2)c1` , tested on Mus musculus?
5.82

Could you share what Activity was measured for `O=[N+]([O-])c1ccccc1-c1nc(-c2ccccc2)c(-c2ccccc2)[nH]1` , tested on Mus musculus?
4.39

Could you share what Activity was measured for `Brc1ccc(-c2nc(-c3ccccc3)c(-c3ccccc3)[nH]2)cc1` , tested on Mus musculus?
6.83

Could you share what Activity was measured for `COc1cc(-c2nc(-c3ccccc3)c(-c3ccccc3)[nH]2)ccc1O` , tested on Mus musculus?
8.34

Could you share what Activity was measured for `Oc1ccc(-c2nc(-c3ccccc3)c(-c3ccccc3)[nH]2)cc1` , tested on Mus musculus?
10.33

Could you share what Activity was measured for `COc1cccc(-c2nc(-c3ccccc3)c(-c3ccccc3)[nH]2)c1` , tested on Mus musculus?
7.99

Could you share what Activity was measured for `Oc1ccccc1-c1nc(-c2ccccc2)c(-c2ccccc2)[nH]1` , tested on Mus musculus?
9.12

Could you share what Activity was measured for `COc1ccccc1-c1nc(-c2ccccc2)c(-c2ccccc2)[nH]1` , tested on Mus musculus?
9.23

Could you share what Activity was measured for `Clc1ccccc1-c1nc(-c2ccccc2)c(-c2ccccc2)[nH]1` , tested on Mus musculus?
8.85

Could you share what Activity was measured for `c1ccc(-c2nc(-c3ccccc3)c(-c3ccccc3)[nH]2)cc1` , tested on Mus musculus?
5.78

Could you share what Activity was measured for `Cc1nc(-c2ccccc2)c(-c2ccccc2)[nH]1` , tested on Mus musculus?
4.35

Could you share what Activity was measured for `C(=C\c1nc(-c2ccccc2)c(-c2ccccc2)[nH]1)/c1ccccc1` , tested on Mus musculus?
4.75

Could you share what Activity was measured for `Cc1ccc(-c2nc(-c3ccccc3)c(-c3ccccc3)[nH]2)cc1` , tested on Mus musculus?
4.89

Could you share what Activity was measured for `Clc1ccc(-c2nc(-c3ccccc3)c(-c3ccccc3)[nH]2)cc1` , tested on Mus musculus?
10.5

Could you share what Activity was measured for `Ic1ccc(-c2nc(-c3ccccc3)c(-c3ccccc3)[nH]2)cc1` , tested on Mus musculus?
6.5

Could you share what Activity was measured for `Fc1ccc(-c2nc(-c3ccccc3)c(-c3ccccc3)[nH]2)cc1` , tested on Mus musculus?
10.67

Could you share what Activity was measured for `c1ccc(-c2nc[nH]c2-c2ccccc2)cc1` , tested on Mus musculus?
4.02

Could you share what Activity was measured for `Cc1ccccc1-c1nc(-c2ccccc2)c(-c2ccccc2)[nH]1` , tested on Mus musculus?
5.52

Could you share what Activity was measured for `CN(C)c1ccc(-c2nc(-c3ccccc3)c(-c3ccccc3)[nH]2)cc1` , tested on Mus musculus?
10.18

Could you share what Activity was measured for `O=[N+]([O-])c1ccc(-c2nc(-c3ccccc3)c(-c3ccccc3)[nH]2)cc1` , tested on Mus musculus?
5.13

Could you share what Activity was measured for `Nc1ccc(-c2nc(-c3ccccc3)c(-c3ccccc3)[nH]2)cc1` , tested on Mus musculus?
10.05

Could you share what Activity was measured for `C=CCc1nc(-c2ccccc2)c(-c2ccccc2)[nH]1` , tested on Mus musculus?
4.29

Where do the numbers come from? From ChEMBL document CHEMBL1144541.
